Molecular target: UniProt P11473
Sequence (whole entry): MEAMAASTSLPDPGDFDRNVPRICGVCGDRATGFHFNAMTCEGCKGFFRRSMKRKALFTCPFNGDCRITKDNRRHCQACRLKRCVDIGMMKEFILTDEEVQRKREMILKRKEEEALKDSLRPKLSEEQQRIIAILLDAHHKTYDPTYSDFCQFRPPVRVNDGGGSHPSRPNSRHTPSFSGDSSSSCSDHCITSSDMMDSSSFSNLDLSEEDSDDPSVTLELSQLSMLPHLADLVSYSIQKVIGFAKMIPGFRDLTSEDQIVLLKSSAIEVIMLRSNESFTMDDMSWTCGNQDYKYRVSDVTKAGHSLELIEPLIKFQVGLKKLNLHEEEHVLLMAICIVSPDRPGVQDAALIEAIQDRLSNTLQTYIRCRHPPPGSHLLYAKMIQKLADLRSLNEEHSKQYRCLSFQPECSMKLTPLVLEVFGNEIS
Test: Inhibition of human recombinant GAL4N-fused VDR LBD expressed in HEK293 cells using 1,25(OH)2D3 as substrate assessed as inhibition of cofactor interaction at 30 uM after 16 to 18 hrs by luciferase reporter gene assay relative to control
Type: cell-based
Parameter: inhibition. Scope: all listed entries.

Worked set:
### Prompt Report measured inhibition on UniProt P11473; entry: C=C(CC)c1ccc2c(c1)CN(CCC(C)C)C(=O)[C@H](CC(C)C)N2
### Response 32%

### Prompt Report measured inhibition on UniProt P11473; entry: CC(C)CCN1Cc2cc(CCCO)ccc2N[C@@H](CC(C)C)C1=O
### Response 9%

### Prompt Report measured inhibition on UniProt P11473; entry: CC(C)CCN1Cc2ccccc2N[C@@H](CC(C)C)C1=O
### Response 29%

### Prompt Report measured inhibition on UniProt P11473; entry: CC(C)CCN1Cc2cc(-c3ccc(C(=O)O)cc3)c(N)cc2N[C@@H](CC(C)C)C1=O
### Response 8%

Next:
### Prompt Report measured inhibition on UniProt P11473; entry: CC(C)CCN1Cc2cc(CC(C)C)ccc2N[C@@H](CC(C)C)C1=O
### Response 45%

### Prompt Report measured inhibition on UniProt P11473; entry: CC/C=C/c1cc2c(cc1N)N[C@@H](CC(C)C)C(=O)N(CCC(C)C)C2
### Response 48%

### Prompt Report measured inhibition on UniProt P11473; entry: CCCCCc1cc2c(cc1N)N[C@@H](CC(C)C)C(=O)N(CCC(C)C)C2
### Response 47%

### Prompt Report measured inhibition on UniProt P11473; entry: CC(C)CCN1Cc2cc(/C=C/CCO)ccc2N[C@@H](CC(C)C)C1=O
### Response 28%

### Prompt Report measured inhibition on UniProt P11473; entry: CC(C)CCN1Cc2cc(/C=C/CO)ccc2N[C@@H](CC(C)C)C1=O
### Response 27%

* * *

Biological target: Vitamin D3 receptor (Homo sapiens)
Experiment: Inhibition of human recombinant GAL4N-fused VDR LBD expressed in HEK293 cells using 1,25(OH)2D3 as substrate assessed as inhibition of cofactor interaction at 30 uM after 16 to 18 hrs by luciferase reporter gene assay relative to control
Type: cell-based
Calls of active or inactive are those of the source. No cut-off for these calls is given here.
observation type: inhibition

### Prompt Report measured inhibition on Vitamin D3 receptor (Homo sapiens); entry: CC(C)CCN1Cc2ccc(N)cc2N[C@@H](CC(C)C)C1=O
### Response 7%

### Prompt Report measured inhibition on Vitamin D3 receptor (Homo sapiens); entry: CC(C)CCN1Cc2cc(I)ccc2N[C@@H](CC(C)C)C1=O
### Response 30%

### Prompt Report measured inhibition on Vitamin D3 receptor (Homo sapiens); entry: CC(C)=Cc1ccc2c(c1)CN(CCC(C)C)C(=O)[C@H](CC(C)C)N2
### Response inactive

### Prompt Report measured inhibition on Vitamin D3 receptor (Homo sapiens); entry: CC(C)CCN1Cc2cc(CCCCO)ccc2N[C@@H](CC(C)C)C1=O
### Response inactive

The reported numbers originate from ChEMBL document CHEMBL2321706.
